assay: Dose required (i.v.) to reduce the lowering of arterial blood pressure caused by PAF in rats.; conditions: Rattus norvegicus
Strictly below 0.04 mg/kg in ID50: y. Otherwise: n.

Completed entries (count: 2):
CC[n+]1ccccc1CN(C(C)=O)C(=O)OCC1COC(OCCCCCCOCc2ccc(-c3ccccc3)cc2)C1 (stereo not drawn)	y
CCCCCCCCCCCCCCCCOCC1CC(COC(=O)N(Cc2cccc[n+]2CC)C(C)=O)CO1.[Cl-] (stereo not drawn)	y

Ask: # check: ID50 < 0.04 mg/kg for CC[n+]1ccccc1CN(C(C)=O)C(=O)OCC1COC(OCCC(C)C)C1 (stereo not drawn)
Result: n

Ask: # check: ID50 < 0.04 mg/kg for CCOC1CC(COC(=O)N(Cc2cccc[n+]2CC)C(C)=O)CO1 (stereo not drawn)
Result: n

Ask: # check: ID50 < 0.04 mg/kg for C=CCCCCCCOCCCCCCOC1CC(COC(=O)N(Cc2cccc[n+]2CC)C(C)=O)CO1.[I-] (stereo not drawn)
Result: n

Ask: # check: ID50 < 0.04 mg/kg for CCCCCCCCCCCCCCCCCCCCOC1CC(COC(=O)N(Cc2cccc[n+]2CC)C(C)=O)CO1 (stereo not drawn)
Result: n

Ask: # check: ID50 < 0.04 mg/kg for CCCCCCCCCCOCCCCCCOC1CC(COC(=O)N(Cc2cccc[n+]2CC)C(C)=O)CO1.[I-] (stereo not drawn)
Result: y

Ask: # check: ID50 < 0.04 mg/kg for CCCCCCCCCCCCCCCCCCOC1C[C@H](COC(=O)N(Cc2cccc[n+]2CC)C(C)=O)CO1.[I-] (stereo partly drawn)
Result: y

Ask: # check: ID50 < 0.04 mg/kg for CCCCCCCCCCCCCCCCCC1CC(COC(=O)N(Cc2cccc[n+]2CC)C(C)=O)CO1.[I-] (stereo not drawn)
Result: n

Ask: # check: ID50 < 0.04 mg/kg for CCCCCCCCCCCCCCCCCCNC(=O)OCC(COC(=O)N(Cc1cccc[n+]1CC)C(C)=O)OC.[Cl-] (stereo not drawn)
Result: y

Ask: # check: ID50 < 0.04 mg/kg for CC[n+]1ccccc1CN(C(C)=O)C(=O)OCC1COC(OCCC(c2ccccc2)c2ccccc2)C1 (stereo not drawn)
Result: n

Ask: # check: ID50 < 0.04 mg/kg for CCCCCCCCCCCCCCCCCCO[C@@H]1C[C@H](COC(=O)N(Cc2cccc[n+]2CC)C(C)=O)CO1.[I-]
Result: n

Ask: # check: ID50 < 0.04 mg/kg for CC[n+]1ccccc1CN(C(C)=O)C(=O)OCC1COC(OCCCc2ccccc2)C1 (stereo not drawn)
Result: n

Ask: # check: ID50 < 0.04 mg/kg for CCCCCCCCCCCCCCCCCCOCC1CC(COC(=O)N(Cc2cccc[n+]2CC)C(C)=O)CO1.[Cl-] (stereo not drawn)
Result: y

Ask: # check: ID50 < 0.04 mg/kg for CCCCCCCCCCCCCCCCOC1CC(COC(=O)N(Cc2cccc[n+]2CC)C(C)=O)CO1.[I-] (stereo not drawn)
Result: y

Ask: # check: ID50 < 0.04 mg/kg for CC[n+]1ccccc1CN(C(C)=O)C(=O)OCC1COC(OCCCCCCOCCCc2ccccc2)C1.[I-] (stereo not drawn)
Result: n

Ask: # check: ID50 < 0.04 mg/kg for CC[n+]1ccccc1CN(C(C)=O)C(=O)OCC1COC(OCCCCCCOCCCCCc2ccccc2)C1.[I-] (stereo not drawn)
Result: y
